Test system: P. falciparum male gametocytes
measurementNotes: P. falciparum Dual Gamete Formation Assay (PfDGFA), male readout (exflagellation)
Assay type: cell-based, Plasmodium falciparum NF54
experimentalContext: PfDGFA, 24 h incubation with gametocytes before induction, exflagellation readout; read-out: Male IC50
pIC50: −log10 of the molar value.
reportedMetric: pIC50

Cl.OC(CNCCCCCCNCC(O)c1ccc(Cl)c(Cl)c1)c1ccc(Cl)c(Cl)c1 (centres unmarked) [TCMDC-141987] :: 5.75
CC(Cc1ccc(OCCCCOc2ccccc2)cc1)NCCC1CCCN1C (centres unmarked) [TCMDC-140017] :: 6.18
O=C(O)C(=O)O.Oc1c(CN2CCC(Cc3ccccc3)CC2)cc(Cl)c2cccnc12 [TCMDC-124594] :: 5.70
CNCCNCc1ccc(-c2ccc(-c3nc4cc(C(F)(F)F)ccc4[nH]3)s2)cc1.O=C(O)C(F)(F)F [TCMDC-132838] :: 5.88
CC(C#N)Cc1ccc(-c2cnc(N)c3cc(-c4ccnc(N)n4)ccc23)cc1 (centres unmarked) [TCMDC-134547] :: 6.49

[a] O=C(Nc1cccc(-c2nn3ncccc3c2-c2ccnc(Nc3cccc(-c4cnco4)c3)n2)c1)c1c(F)cccc1F [TCMDC-135550]
[b] CCN(CC)CCOc1ccc(C(O)(C#CC(O)(c2ccc(Br)cc2)c2ccc(OCCN(CC)CC)cc2)c2ccc(Br)cc2)cc1 (centres unmarked) [TCMDC-137199]
[c] COc1cccc(CCc2c(CCNCCCCCCNCCc3ccccc3)ccc(OC)c2OC)c1.Cl [TCMDC-132105]
Output the entries ranked by pIC50 from maximum down to minimum. Lab note: record answer as labels in requested order.
a, b, c
